Data credit: ChEMBL document CHEMBL6092213

Test: Inhibition of Mycobacterium avium DHFR using 7, 8 dihydrofolate as substrate incubated for 1 hr by plate reader assay
pIC50: −log10 of the molar value.
Please mark Yes if the recorded pIC50 is equal to or greater than 7, and No if it falls below.

[[record]]
smi = "CCCCOc1nc(N)nc(N)c1OCCCOc1ccccc1CCC(=O)O"
class = "No"

[[record]]
smi = "Nc1nc(N)c(OCCCOc2ccccc2CCC(=O)O)c(C2CCCCC2)n1"
class = "Yes"

[[record]]
smi = "COc1cccc(-c2nc(N)nc(N)c2OCCCOc2ccccc2CCC(=O)O)c1"
class = "Yes"

[[record]]
smi = "COc1nc(N)nc(N)c1OCCCOc1ccccc1CCC(=O)O"
class = "No"

[[record]]
smi = "Nc1nc(N)c(OCCCOc2ccccc2CCC(=O)O)c(-c2cccc(C(F)(F)F)c2)n1"
class = "No"

[[record]]
smi = "COc1ccc(-c2nc(N)nc(N)c2OCCCOc2ccccc2CCC(=O)O)cc1"
class = "Yes"

[[record]]
smi = "CCc1nc(N)nc(N)c1OCCCOc1ccccc1CCC(=O)O"
class = "Yes"

[[record]]
smi = "CCCCCc1nc(N)nc(N)c1OCCCOc1ccccc1CCC(=O)O"
class = "Yes"

[[record]]
smi = "Nc1nc(N)c(OCCCOc2ccccc2CCC(=O)O)c(-c2ccccc2)n1"
class = "Yes"


Continue with the next compound.
State whether the measured pIC50 reaches 7, counting equality as reaching it, for NCCCc1nc(N)nc(N)c1OCCCOc1ccccc1CCC(=O)O
No
